# maps each entry to its IC50
Biological target: ENL YEATS domain (association with H3K27cr) (Homo sapiens, UniProt Q03111)
Sequence (Q03111 1-148): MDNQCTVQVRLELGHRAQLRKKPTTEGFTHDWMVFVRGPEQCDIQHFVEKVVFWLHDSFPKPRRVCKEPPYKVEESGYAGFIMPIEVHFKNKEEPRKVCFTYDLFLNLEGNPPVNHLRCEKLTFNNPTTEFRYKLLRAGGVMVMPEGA
Test: biochemical
Settings: ENL (YEATS)-H3K27cr HTRF (IC50, μM), Table 1
measuredMetric: IC50

compound=CN(C(=O)c1ccc2nc(-c3ccccc3)cn2c1)C1CCC1 experimentaltarget="ENL YEATS domain (association with H3K27cr) (Homo sapiens, UniProt Q03111)" experimentalvalue="> 50 µM"
compound=O=C(N[C@H]1CCc2ccccc21)c1ccc2nc(-c3ccccc3)cn2c1 experimentaltarget="ENL YEATS domain (association with H3K27cr) (Homo sapiens, UniProt Q03111)" experimentalvalue="> 50 µM"
compound=O=C(NC1Cc2ccccc2C1)c1ccc2nc(-c3ccccc3)cn2c1 experimentaltarget="ENL YEATS domain (association with H3K27cr) (Homo sapiens, UniProt Q03111)" experimentalvalue="> 50 µM"
compound="Cc1ccc(C2CCC2NC(=O)c2ccc3nc(-c4ccccc4)cn3c2)c(C)c1 (stereo not shown)" experimentaltarget="ENL YEATS domain (association with H3K27cr) (Homo sapiens, UniProt Q03111)" experimentalvalue="> 50 µM"

----------
biological target: ENL YEATS domain (association with H3K27cr) (Homo sapiens); test: biochemical; conditions: ENL (YEATS)-H3K27cr HTRF (IC50, μM), Table 1
measuredMetric: IC50

itemsmiles=CC(C)NC(=O)c1ccc2nc(-c3ccc(C(F)(F)F)cc3)cn2c1 measuredmetric=IC50 experimentalvalue="> 50 µM"
itemsmiles=O=C(NC1COC1)c1ccc2nc(-c3ccccc3)cn2c1 measuredmetric=IC50 experimentalvalue="> 50 µM"
itemsmiles=N#CC1(NC(=O)c2ccc3nc(-c4ccccc4)cn3c2)CCC1 measuredmetric=IC50 experimentalvalue="> 50 µM"

----------
molecular target: ENL(YEATS)-HiBiT (Homo sapiens, UniProt Q03111); test: cell-based
measuredMetric: IC50 (µM)

compound=O=C(N[C@@H]1CCc2ccccc21)c1ccc2nc(-c3ccccc3)cn2c1 unitannotation=µM op== experimentalvalue=8.9
compound=CC(C)NC(=O)c1ccc2nc(-c3cccc(NS(=O)(=O)NCCc4c[nH]cn4)c3)cn2c1 unitannotation=µM op== experimentalvalue=8.5
compound=O=C(NC1CCC1)c1ccc2nc(-c3cccc(NS(=O)(=O)NCC(=O)N4CCCCC4)c3)cn2c1 unitannotation=µM op== experimentalvalue=12
compound=CC(C)NC(=O)c1ccc2nc(-c3ccccc3C(F)(F)F)cn2c1 unitannotation=µM op=> experimentalvalue=100
compound=O=C(NC1CC(F)(F)C1)c1ccc2nc(-c3ccccc3)cn2c1 unitannotation=µM op=> experimentalvalue=50
compound=O=C(NC1CCC1)c1ccc2nc(-c3cccc(NS(=O)(=O)NCCN4CCCCC4=O)c3)cn2c1 unitannotation=µM op== experimentalvalue=1.05
compound=COc1ccc(-c2cn3cc(C(=O)NC(C)C)ccc3n2)cc1 unitannotation=µM op== experimentalvalue=80
compound=O=C(NC1CCC1)c1ccc2nc(-c3cccc(NS(=O)(=O)NCCN4CCC(O)CC4)c3)cn2c1 unitannotation=µM op== experimentalvalue=0.742
compound=O=C(NCCN1CCCCC1)c1cccc(-c2cn3cc(C(=O)NC4CCC4)ccc3n2)c1 unitannotation=µM op== experimentalvalue=0.63
compound=CN(C(=O)c1ccc2nc(-c3ccccc3)cn2c1)C1CCC1 unitannotation=µM op=> experimentalvalue=50
compound=O=C(CCN1CCOCC1)Nc1cccc(-c2cn3cc(C(=O)NC4CCC4)ccc3n2)c1 unitannotation=µM op== experimentalvalue=5.01
compound=O=C(NC1COC1)c1ccc2nc(-c3ccccc3)cn2c1 unitannotation=µM op== experimentalvalue=27.3
compound="O=C(NC1CCCC(O)C1)c1ccc2nc(-c3ccccc3)cn2c1 (centres unmarked)" unitannotation=µM op== experimentalvalue=80
compound=O=C(NC1Cc2ccccc2C1)c1ccc2nc(-c3ccccc3)cn2c1 unitannotation=µM op=> experimentalvalue=50
compound=CC(C)NC(=O)c1ccc2nc(-c3ccc(C(F)(F)F)cc3)cn2c1 unitannotation=µM op=> experimentalvalue=100
compound=CCC(CC)NC(=O)c1ccc2nc(-c3ccccc3)cn2c1 unitannotation=µM op=> experimentalvalue=100
compound=O=C(N[C@@H]1CC[C@H]1O)c1ccc2nc(-c3ccccc3)cn2c1 unitannotation=µM op== experimentalvalue=56
